Values from a melting point compilation (Tetko et al.; mined from patent text by program, amines drawn as free bases though some values may be those of a salt)

I'd appreciate it if you could supply melting point values for the items below.

{"COMPOUND": "CCOC(=O)C(CC(C)C)NC(=O)N1CCc2cc(S(=O)(=O)N3CCN(c4cccc(Cl)c4)CC3)ccc21 (centres undefined)", "melting point": "76 to 77 °C"}
{"COMPOUND": "CC(C)Oc1cc(-n2c(=O)c(F)c(C(F)(F)C(F)(F)F)n(C)c2=O)c(F)cc1Cl", "melting point": "107 to 109 °C"}
{"COMPOUND": "COc1ccc2c(N(C)CCN3CCOCC3)noc2c1", "melting point": "43 to 44 °C"}
{"COMPOUND": "Cc1nc2c3c(c(C(=O)N4CCC4)cc2n1C)CCC1(Cc2ccccc2C1)N3", "melting point": "222 to 223 °C"}

Please go through the list and note melting point for each compound.
1. CCc1ccc2c(C3=C(c4cn(C)c5ccccc45)C(=O)NC3=O)cn(C)c2c1
2. COc1ccc(CCCCCCCOc2ccccc2)cc1
3. CCOC(=O)CC(=O)N(C)c1ccccc1[N+](=O)[O-]
4. CCOC(CN1C(=O)C2=C(c3ccc(Br)cc3)N(CC(OCC)OCC)C(=O)C2=C1c1ccc(Br)cc1)OCC
5. CC(C)NS(=O)(=O)c1ccc(N)c(C(=O)N2CCN(C)CC2)c1

stdout:
247 to 248 °C
32 to 34 °C
54 to 55 °C
198 to 201 °C
118 to 122 °C
